Molecular target: Phosphorylase b kinase gamma catalytic chain, skeletal muscle/heart isoform (Homo sapiens, UniProt Q16816)
Sequence (Q16816 whole entry, canonical isoform): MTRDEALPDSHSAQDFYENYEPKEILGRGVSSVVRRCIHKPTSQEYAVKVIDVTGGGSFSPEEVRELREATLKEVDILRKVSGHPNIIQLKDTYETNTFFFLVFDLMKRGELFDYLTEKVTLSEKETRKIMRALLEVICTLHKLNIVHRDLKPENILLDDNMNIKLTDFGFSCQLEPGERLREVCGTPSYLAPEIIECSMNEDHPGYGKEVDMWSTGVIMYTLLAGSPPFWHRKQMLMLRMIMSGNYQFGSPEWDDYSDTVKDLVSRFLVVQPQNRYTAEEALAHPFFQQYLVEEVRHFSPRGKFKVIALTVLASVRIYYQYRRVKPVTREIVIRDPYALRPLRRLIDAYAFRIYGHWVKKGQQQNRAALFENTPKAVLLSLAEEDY
Experiment: Inhibition of human wild type PHKgamma1 using 3xChocktide-PKC([…]-[…]) as substrate preincubated for 2 hrs followed by ATP addition and measured every 2 mins for […] by spectrophotometric analysis
OBSERVATION_TYPE: IC50

stdin: Entry CNC(=O)c1cc(Oc2ccc(NC(=O)Nc3cc(C(C)(C)C)nn3-c3ccc4ncccc4c3)c(F)c2)ccn1 has what IC50?
stdout: > 1000 nM

###

Target: Dual specificity mitogen-activated protein kinase kinase 1 (Homo sapiens, UniProt Q02750)
Sequence (Q02750 whole entry): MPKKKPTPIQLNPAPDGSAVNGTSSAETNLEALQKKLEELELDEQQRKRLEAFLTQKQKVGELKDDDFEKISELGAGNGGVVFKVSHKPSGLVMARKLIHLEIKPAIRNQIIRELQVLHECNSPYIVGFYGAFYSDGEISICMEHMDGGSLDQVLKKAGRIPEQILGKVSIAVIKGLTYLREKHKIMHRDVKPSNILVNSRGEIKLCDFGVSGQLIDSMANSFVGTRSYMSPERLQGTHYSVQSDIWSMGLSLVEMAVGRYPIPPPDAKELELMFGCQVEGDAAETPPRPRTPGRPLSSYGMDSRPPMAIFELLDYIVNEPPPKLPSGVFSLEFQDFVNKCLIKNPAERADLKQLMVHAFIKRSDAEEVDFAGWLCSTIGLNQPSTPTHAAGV
Assay: Inhibition of human wild type MEK1 using ERK2-KR as substrate preincubated for 2 hrs followed by ATP addition and measured every 2 mins for […] by spectrophotometric analysis
OBSERVATION_TYPE: IC50

stdin: Entry CNC(=O)c1cc(Oc2ccc(NC(=O)Nc3cc(C(C)(C)C)nn3-c3ccc4ncccc4c3)c(F)c2)ccn1 [REBASTINIB] has what IC50?
stdout: > 1000 nM

###

Biological target: Ephrin type-A receptor 7 (Homo sapiens)
Sequence (Q15375 whole entry): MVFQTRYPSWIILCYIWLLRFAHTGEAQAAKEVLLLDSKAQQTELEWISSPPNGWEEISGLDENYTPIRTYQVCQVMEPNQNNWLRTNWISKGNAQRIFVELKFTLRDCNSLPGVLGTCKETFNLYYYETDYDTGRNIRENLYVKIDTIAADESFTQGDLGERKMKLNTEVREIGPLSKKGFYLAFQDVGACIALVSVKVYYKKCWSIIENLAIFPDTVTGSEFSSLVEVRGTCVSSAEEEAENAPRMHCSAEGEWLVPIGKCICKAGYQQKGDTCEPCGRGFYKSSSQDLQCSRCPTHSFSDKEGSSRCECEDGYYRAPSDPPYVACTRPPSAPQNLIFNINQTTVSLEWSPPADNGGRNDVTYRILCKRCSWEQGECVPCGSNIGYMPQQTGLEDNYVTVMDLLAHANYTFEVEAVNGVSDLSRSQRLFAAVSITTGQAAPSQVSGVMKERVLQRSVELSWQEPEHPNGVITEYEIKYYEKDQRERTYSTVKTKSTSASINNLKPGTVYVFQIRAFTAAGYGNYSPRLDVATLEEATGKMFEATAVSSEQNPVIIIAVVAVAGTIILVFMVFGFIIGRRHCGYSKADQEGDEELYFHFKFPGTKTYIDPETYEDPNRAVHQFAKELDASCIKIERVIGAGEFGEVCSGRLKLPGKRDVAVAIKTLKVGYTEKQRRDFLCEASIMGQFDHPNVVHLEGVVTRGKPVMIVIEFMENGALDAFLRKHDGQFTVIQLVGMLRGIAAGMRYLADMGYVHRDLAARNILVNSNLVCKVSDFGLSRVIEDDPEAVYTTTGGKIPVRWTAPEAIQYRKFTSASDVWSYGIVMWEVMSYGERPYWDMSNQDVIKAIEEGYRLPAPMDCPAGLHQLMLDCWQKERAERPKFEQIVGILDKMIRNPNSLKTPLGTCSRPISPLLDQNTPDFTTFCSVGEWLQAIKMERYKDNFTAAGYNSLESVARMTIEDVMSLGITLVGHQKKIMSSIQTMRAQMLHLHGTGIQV
OBSERVATION_TYPE: IC50
Write down the value, and be sure its unit follows.

stdin: Entry CNC(=O)c1cc(Oc2ccc(NC(=O)Nc3cc(C(C)(C)C)nn3-c3ccc4ncccc4c3)c(F)c2)ccn1 [REBASTINIB] has what IC50?
stdout: 88 nM

###

Target: NUAK family SNF1-like kinase 2 (Homo sapiens, UniProt Q9H093)
Sequence (Q9H093 whole entry): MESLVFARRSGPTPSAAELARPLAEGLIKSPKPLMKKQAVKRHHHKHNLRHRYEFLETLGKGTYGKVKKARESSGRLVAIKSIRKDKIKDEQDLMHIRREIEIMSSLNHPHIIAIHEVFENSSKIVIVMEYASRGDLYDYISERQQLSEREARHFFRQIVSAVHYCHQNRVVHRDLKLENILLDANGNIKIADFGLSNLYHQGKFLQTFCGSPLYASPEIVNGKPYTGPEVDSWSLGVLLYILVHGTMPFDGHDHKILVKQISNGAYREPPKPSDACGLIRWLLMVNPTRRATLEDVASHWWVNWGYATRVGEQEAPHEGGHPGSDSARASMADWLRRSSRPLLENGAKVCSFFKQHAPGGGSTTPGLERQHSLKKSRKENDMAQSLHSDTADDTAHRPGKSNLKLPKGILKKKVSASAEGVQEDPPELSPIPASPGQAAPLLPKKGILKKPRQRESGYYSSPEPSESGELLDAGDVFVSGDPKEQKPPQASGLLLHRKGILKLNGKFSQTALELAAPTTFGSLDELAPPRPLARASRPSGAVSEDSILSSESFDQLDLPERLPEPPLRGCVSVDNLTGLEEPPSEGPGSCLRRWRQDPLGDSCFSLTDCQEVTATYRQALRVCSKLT
Assay: Inhibition of human wild type SNARK using Histon H2B as substrate preincubated for 2 hrs followed by ATP addition and measured every 2 mins for […] by spectrophotometric analysis
OBSERVATION_TYPE: IC50

stdin: Entry CNC(=O)c1cc(Oc2ccc(NC(=O)Nc3cc(C(C)(C)C)nn3-c3ccc4ncccc4c3)c(F)c2)ccn1 [REBASTINIB] has what IC50?
stdout: > 1 µM

###

Molecular target: Lymphokine-activated killer T-cell-originated protein kinase (Homo sapiens)
Sequence (Q96KB5 whole entry): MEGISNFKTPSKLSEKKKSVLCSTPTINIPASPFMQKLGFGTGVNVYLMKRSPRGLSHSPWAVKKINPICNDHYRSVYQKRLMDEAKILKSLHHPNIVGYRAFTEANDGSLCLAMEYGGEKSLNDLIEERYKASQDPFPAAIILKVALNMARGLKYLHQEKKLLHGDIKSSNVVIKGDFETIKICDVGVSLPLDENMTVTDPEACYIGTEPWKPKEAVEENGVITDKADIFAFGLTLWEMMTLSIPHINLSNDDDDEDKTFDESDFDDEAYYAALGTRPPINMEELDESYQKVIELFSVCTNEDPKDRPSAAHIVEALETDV
Assay: Inhibition of human wild type PBK using Histon H1 as substrate preincubated for 2 hrs followed by ATP addition and measured every 2 mins for […] by spectrophotometric analysis
OBSERVATION_TYPE: IC50

stdin: Recall the recorded IC50 for CNC(=O)c1cc(Oc2ccc(NC(=O)Nc3cc(C(C)(C)C)nn3-c3ccc4ncccc4c3)c(F)c2)ccn1 with Lymphokine-activated killer T-cell-originated protein kinase (Homo sapiens) and state it.
stdout: > 1000 nM

###

Target: Protein kinase C gamma type (Homo sapiens)
OBSERVATION_TYPE: IC50

stdin: Entry CNC(=O)c1cc(Oc2ccc(NC(=O)Nc3cc(C(C)(C)C)nn3-c3ccc4ncccc4c3)c(F)c2)ccn1 [REBASTINIB] has what IC50?
stdout: > 1000 nM

###

Protein target, amino acids: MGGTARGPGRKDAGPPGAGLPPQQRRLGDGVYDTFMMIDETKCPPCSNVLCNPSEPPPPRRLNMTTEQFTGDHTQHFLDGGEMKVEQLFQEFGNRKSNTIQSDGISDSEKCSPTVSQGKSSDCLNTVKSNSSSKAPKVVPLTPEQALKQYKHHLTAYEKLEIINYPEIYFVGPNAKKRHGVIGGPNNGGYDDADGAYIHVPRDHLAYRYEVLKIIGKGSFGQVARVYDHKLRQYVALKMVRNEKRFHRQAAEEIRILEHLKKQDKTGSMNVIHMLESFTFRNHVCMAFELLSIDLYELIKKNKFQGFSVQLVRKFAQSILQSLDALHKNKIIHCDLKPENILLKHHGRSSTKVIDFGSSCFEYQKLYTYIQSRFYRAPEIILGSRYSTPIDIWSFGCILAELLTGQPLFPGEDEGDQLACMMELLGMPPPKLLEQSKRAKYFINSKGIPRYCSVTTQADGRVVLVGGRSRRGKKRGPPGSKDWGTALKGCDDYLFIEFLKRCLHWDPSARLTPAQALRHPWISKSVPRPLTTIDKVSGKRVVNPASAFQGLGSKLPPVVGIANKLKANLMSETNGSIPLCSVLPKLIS
OBSERVATION_TYPE: IC50 (nM)
The figure you give is taken to be in nM; do not add the unit.

stdin: Entry CNC(=O)c1cc(Oc2ccc(NC(=O)Nc3cc(C(C)(C)C)nn3-c3ccc4ncccc4c3)c(F)c2)ccn1 [REBASTINIB] has what IC50?
stdout: 710

###

Target: Tyrosine-protein kinase BTK (Homo sapiens)
OBSERVATION_TYPE: IC50 (nM)
The figure you give is taken to be in nM; do not add the unit.

stdin: Entry CNC(=O)c1cc(Oc2ccc(NC(=O)Nc3cc(C(C)(C)C)nn3-c3ccc4ncccc4c3)c(F)c2)ccn1 [REBASTINIB] has what IC50?
stdout: 330

###

Test system: BaF3
Assay: cells
Conditions: Mus musculus, BaF3, 72 h
OBSERVATION_TYPE: IC50 (nM)
The figure you give is taken to be in nM; do not add the unit.

{"COMPOUND": "Cc1nc(Nc2ncc(C(=O)Nc3c(C)cccc3Cl)s2)cc(N2CCN(CCO)CC2)n1 [DASATINIB ANHYDROUS]", "OBSERVATION_TYPE": "IC50", "UNITS_OF_MEASURE": "nM", "TEST_RESULT": 65}

# evaluate next
stdin: Recall the recorded IC50 for Cc1cc(Nc2cc(N3CCN(C)CC3)nc(Sc3ccc(NC(=O)C4CC4)cc3)n2)n[nH]1 [TOZASERTIB] with BaF3 and state it.
stdout: 88

###

Target: Serine/threonine-protein kinase N1 (Homo sapiens, UniProt Q16512)
pIC50: −log10 of the molar value.
OBSERVATION_TYPE: pIC50

stdin: Recall the recorded pIC50 for CNC(=O)c1cc(Oc2ccc(NC(=O)Nc3cc(C(C)(C)C)nn3-c3ccc4ncccc4c3)c(F)c2)ccn1 with Serine/threonine-protein kinase N1 (Homo sapiens, UniProt Q16512) and state it.
stdout: < 6.00

###

Target: Serine/threonine-protein kinase MARK1 (Homo sapiens, UniProt Q9P0L2)
Sequence (Q9P0L2 whole entry): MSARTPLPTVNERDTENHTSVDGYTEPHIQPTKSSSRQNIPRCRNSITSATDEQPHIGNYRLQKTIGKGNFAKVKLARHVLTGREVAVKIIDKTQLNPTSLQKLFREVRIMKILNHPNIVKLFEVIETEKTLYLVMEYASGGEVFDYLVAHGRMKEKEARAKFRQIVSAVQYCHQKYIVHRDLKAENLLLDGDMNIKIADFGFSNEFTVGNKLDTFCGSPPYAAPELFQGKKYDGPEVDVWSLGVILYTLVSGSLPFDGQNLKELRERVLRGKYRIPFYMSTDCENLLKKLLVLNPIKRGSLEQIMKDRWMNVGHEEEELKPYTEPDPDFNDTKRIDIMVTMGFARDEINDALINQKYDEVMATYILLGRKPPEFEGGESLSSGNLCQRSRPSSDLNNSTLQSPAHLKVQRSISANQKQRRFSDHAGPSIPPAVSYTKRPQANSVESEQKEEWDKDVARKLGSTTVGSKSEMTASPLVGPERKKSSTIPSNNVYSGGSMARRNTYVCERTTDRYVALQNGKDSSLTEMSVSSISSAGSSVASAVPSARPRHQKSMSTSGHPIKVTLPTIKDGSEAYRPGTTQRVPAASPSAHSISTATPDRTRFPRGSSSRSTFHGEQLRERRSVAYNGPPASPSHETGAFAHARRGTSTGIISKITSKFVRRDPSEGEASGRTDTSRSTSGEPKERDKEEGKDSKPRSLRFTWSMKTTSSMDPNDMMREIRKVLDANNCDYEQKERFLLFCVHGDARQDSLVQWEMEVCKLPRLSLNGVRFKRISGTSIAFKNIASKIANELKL
pIC50: −log10 of the molar value.
OBSERVATION_TYPE: pIC50

stdin: Entry CNC(=O)c1cc(Oc2ccc(NC(=O)Nc3cc(C(C)(C)C)nn3-c3ccc4ncccc4c3)c(F)c2)ccn1 has what pIC50?
stdout: < 6.00

###

Target: STE20-like serine/threonine-protein kinase (Homo sapiens, UniProt Q9H2G2)
OBSERVATION_TYPE: IC50 (nM)
The figure you give is taken to be in nM; do not add the unit.

stdin: Entry CNC(=O)c1cc(Oc2ccc(NC(=O)Nc3cc(C(C)(C)C)nn3-c3ccc4ncccc4c3)c(F)c2)ccn1 [REBASTINIB] has what IC50?
stdout: 670

###

Target: TGF-beta receptor type-2 (Homo sapiens, UniProt P37173)
Sequence (P37173 whole entry): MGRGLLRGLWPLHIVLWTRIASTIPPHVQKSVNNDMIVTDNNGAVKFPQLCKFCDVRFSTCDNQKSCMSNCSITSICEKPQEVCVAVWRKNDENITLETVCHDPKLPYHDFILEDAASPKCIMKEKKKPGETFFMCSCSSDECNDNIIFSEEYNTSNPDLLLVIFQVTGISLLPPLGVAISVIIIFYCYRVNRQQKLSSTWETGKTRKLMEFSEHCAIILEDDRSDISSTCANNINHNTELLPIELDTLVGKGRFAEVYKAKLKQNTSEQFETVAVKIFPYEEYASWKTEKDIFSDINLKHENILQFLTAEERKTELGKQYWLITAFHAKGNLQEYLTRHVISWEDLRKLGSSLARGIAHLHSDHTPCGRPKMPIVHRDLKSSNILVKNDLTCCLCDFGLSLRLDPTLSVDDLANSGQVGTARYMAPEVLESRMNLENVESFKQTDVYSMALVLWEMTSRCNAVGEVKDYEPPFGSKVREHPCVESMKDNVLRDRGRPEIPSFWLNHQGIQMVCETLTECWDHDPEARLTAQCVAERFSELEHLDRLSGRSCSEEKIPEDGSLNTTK
pIC50: −log10 of the molar value.
OBSERVATION_TYPE: pIC50

stdin: Entry CNC(=O)c1cc(Oc2ccc(NC(=O)Nc3cc(C(C)(C)C)nn3-c3ccc4ncccc4c3)c(F)c2)ccn1 [REBASTINIB] has what pIC50?
stdout: < 6.00

###

Biological target: Tyrosine-protein kinase SYK (Homo sapiens, UniProt P43405)
Assay: Inhibition of human wild type SYK using PolyEY as substrate preincubated for 2 hrs followed by ATP addition and measured every 2 mins for […] by spectrophotometric analysis
OBSERVATION_TYPE: pIC50
The scale used: pIC50 is minus the common logarithm of the concentration in molar units.

stdin: Recall the recorded pIC50 for CNC(=O)c1cc(Oc2ccc(NC(=O)Nc3cc(C(C)(C)C)nn3-c3ccc4ncccc4c3)c(F)c2)ccn1 with Tyrosine-protein kinase SYK (Homo sapiens, UniProt P43405) and state it.
stdout: 6.80

###

Target: UniProt:P17252
OBSERVATION_TYPE: IC50

stdin: Recall the recorded IC50 for CNC(=O)c1cc(Oc2ccc(NC(=O)Nc3cc(C(C)(C)C)nn3-c3ccc4ncccc4c3)c(F)c2)ccn1 [REBASTINIB] with UniProt:P17252 and state it.
stdout: > 1000 nM

###

Target: UniProt Q13464
pIC50: −log10 of the molar value.
OBSERVATION_TYPE: pIC50

stdin: Recall the recorded pIC50 for CNC(=O)c1cc(Oc2ccc(NC(=O)Nc3cc(C(C)(C)C)nn3-c3ccc4ncccc4c3)c(F)c2)ccn1 with UniProt Q13464 and state it.
stdout: < 6.00

###

Target: Serine/threonine-protein kinase PLK1 (Homo sapiens)
Sequence (P53350 whole entry): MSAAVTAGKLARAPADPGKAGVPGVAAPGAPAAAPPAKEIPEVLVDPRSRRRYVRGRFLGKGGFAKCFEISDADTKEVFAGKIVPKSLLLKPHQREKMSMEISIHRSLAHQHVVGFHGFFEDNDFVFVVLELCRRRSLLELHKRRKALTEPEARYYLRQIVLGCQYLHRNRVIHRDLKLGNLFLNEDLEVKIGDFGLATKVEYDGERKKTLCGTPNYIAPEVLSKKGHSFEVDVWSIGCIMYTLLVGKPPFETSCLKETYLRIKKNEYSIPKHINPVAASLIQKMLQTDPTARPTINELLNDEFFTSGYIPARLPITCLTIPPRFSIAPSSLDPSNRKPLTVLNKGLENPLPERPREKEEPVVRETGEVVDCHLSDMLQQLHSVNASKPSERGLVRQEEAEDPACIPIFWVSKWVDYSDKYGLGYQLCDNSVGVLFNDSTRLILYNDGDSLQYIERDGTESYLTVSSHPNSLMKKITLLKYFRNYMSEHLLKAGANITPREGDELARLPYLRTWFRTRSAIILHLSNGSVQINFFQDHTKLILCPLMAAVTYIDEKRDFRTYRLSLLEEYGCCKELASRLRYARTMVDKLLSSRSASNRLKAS
OBSERVATION_TYPE: IC50

stdin: Entry CNC(=O)c1cc(Oc2ccc(NC(=O)Nc3cc(C(C)(C)C)nn3-c3ccc4ncccc4c3)c(F)c2)ccn1 has what IC50?
stdout: > 1000 nM

###

Molecular target: Tyrosine-protein kinase ABL1 (Homo sapiens, UniProt P00519, T315I)
Assay: Inhibition of human ABL1 T315I mutant (229 to 499 residues) using ABLtide as substrate preincubated for 2 hrs followed by ATP addition and measured every 2 mins for […] by spectrophotometric analysis
# pIC50 annotations
The scale used: pIC50 is minus the common logarithm of the concentration in molar units.

{"STRUCTURE_SMILES": "CNC(=O)c1cc(Oc2ccc(NC(=O)Nc3cc(C(C)(C)C)nn3C)c(F)c2)ccn1", "pIC50": 7.10}
{"STRUCTURE_SMILES": "CC(C)(C)c1cc(NC(=O)Nc2cccc(Cl)c2Cl)n(-c2ccc3c(c2)C[C@@H](C(=O)O)NC3)n1", "pIC50": 6.11}
{"STRUCTURE_SMILES": "CC(C)(C)c1cc(NC(=O)Nc2cccc(Cl)c2Cl)n(-c2ccc3ncccc3c2)n1", "pIC50": 6.15}

# evaluate next
stdin: Entry CNC(=O)c1cc(Oc2ccc(NC(=O)Nc3cc(C(C)(C)C)nn3-c3ccc4c(c3)CCNC4)c(F)c2)ccn1 has what pIC50?
stdout: 7.77

meta.source: ChEMBL document CHEMBL5678804
